- System: K562-IMA[r]
- procedure-text: Induction of sensitization to imatinib-induced cytotoxicity in imatinib-resistant human K562-IMA[r] cells assessed as gain in cell death rate at 5 uM measured after 72 hrs in presence of 1 uM imatinib by propidium iodide/Triton-X100 dye based FACS analysis relative to imatinib-treated control
- Assay type: functional
# label = True if Activity < 8% else False

INSERT INTO assay_data (compound_structure_string, class_assignment) VALUES
  ('CCCc1nc2ccccc2n1Cc1ccc(-c2ccccc2C(N)=O)cc1', 'False');

INPUT: I'd appreciate it if you could check whether `CCCc1nc2c(C(F)(F)F)cccc2n1Cc1ccc(-c2ccccc2C(N)=O)cc1` has Activity smaller than 8%.
OUTPUT: True

INPUT: Item `CCCc1nc2c(Cl)cccc2n1Cc1ccc(-c2ccccc2C(N)=O)cc1` : Activity beneath 8%, strictly?
OUTPUT: False

INPUT: Lab note: confirm whether the reported Activity for this compound is below 8%, equality not counting. compound: `CCCc1nc2c(C)cccc2n1Cc1ccc(-c2ccccc2C(N)=O)cc1`
OUTPUT: False

INPUT: Quick check: Activity of `CCCc1nc2c(Br)cccc2n1Cc1ccc(-c2ccccc2C(N)=O)cc1` under 8%?
OUTPUT: False

----------
# pEC50 listing for each entry below
- measurement-target: Peroxisome proliferator-activated receptor gamma (Homo sapiens, UniProt P37231)
- Sequence (P37231 whole entry): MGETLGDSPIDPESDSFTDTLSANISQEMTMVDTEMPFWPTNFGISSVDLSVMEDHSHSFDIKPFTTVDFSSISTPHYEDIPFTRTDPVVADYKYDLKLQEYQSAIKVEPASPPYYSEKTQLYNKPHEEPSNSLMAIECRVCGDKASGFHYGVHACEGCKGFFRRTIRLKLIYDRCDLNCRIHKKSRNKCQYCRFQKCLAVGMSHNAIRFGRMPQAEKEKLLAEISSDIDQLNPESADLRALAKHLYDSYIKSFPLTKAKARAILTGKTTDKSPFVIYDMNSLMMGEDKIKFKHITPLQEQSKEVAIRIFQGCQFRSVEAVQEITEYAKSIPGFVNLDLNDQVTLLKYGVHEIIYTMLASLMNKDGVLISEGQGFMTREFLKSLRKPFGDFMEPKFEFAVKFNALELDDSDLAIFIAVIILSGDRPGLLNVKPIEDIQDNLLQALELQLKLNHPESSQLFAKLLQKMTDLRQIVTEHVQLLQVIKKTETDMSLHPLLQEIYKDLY
- procedure-text: Transactivation of Gal4-fused human PPARgamma transfected in COS7 cells co-transfected with pGAL5-TK-pGL3 and pRennilla-CMV incubated for 39 hrs by dual luciferase reporter assay
- Format: cell-based
Note: pEC50 values are expressed as the negative base-10 logarithm of concentration in M.

Consider the reported pEC50 for these compounds:
INSERT INTO measurements (compound, measurement_target, observed_value) VALUES
  ('CCCc1nc2c(Cl)cccc2n1Cc1ccc(-c2ccccc2C(=O)O)cc1', 'Peroxisome proliferator-activated receptor gamma (Homo sapiens, UniProt P37231)', 5.06),
  ('CCCc1nc2ccccc2n1Cc1ccc(-c2ccccc2C(=O)O)cc1', 'Peroxisome proliferator-activated receptor gamma (Homo sapiens, UniProt P37231)', 5.14),
  ('CCCc1nc2c(F)cccc2n1Cc1ccc(-c2ccccc2C(=O)O)cc1', 'Peroxisome proliferator-activated receptor gamma (Homo sapiens, UniProt P37231)', 5.06);

INPUT: Given `CCCc1nc2c(C)cccc2n1Cc1ccc(-c2ccccc2C(=O)O)cc1` , report its pEC50 on Peroxisome proliferator-activated receptor gamma (Homo sapiens, UniProt P37231).
OUTPUT: 4.95

INPUT: Output reported pEC50 of the compound `CCCc1nc2c(Br)cccc2n1Cc1ccc(-c2ccccc2C(=O)O)cc1` on Peroxisome proliferator-activated receptor gamma (Homo sapiens, UniProt P37231).
OUTPUT: 5.08

INPUT: Quote Peroxisome proliferator-activated receptor gamma (Homo sapiens, UniProt P37231) pEC50 for entry `CCCc1nc2c(C(F)(F)F)cccc2n1Cc1ccc(-c2ccccc2C(=O)O)cc1` .
OUTPUT: 4.92

INPUT: Recall the reported pEC50 of CCCc1nc2c(C)cc(-c3nc4ccccc4n3C)cc2n1Cc1ccc(-c2ccccc2C(=O)O)cc1 [TELMISARTAN] when tested on Peroxisome proliferator-activated receptor gamma (Homo sapiens, UniProt P37231).
OUTPUT: 5.37
